B1: PPP2R2C (parent)
chain: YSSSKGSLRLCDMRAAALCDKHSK

variants of: B1; assay: protein stability index of a GFP-peptide fusion (GPS, HEK-293T) (PSI 1-6); higher = more stable; settings: c terminus: a fixed tail appended;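 also: lentivirally expressed fusions sorted by FACS into six bins by GFP to DsRed ratio, PSI derived from sequencing read proportions per bin multiplied by bin number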
Recorded measurements of protein stability index, one per entry
Keep the answer to the number alone.

Study these solved cases before continuing.
[
  {
    "alteration": "C19Y",
    "result number": 2.01
  },
  {
    "alteration": "A16S",
    "result number": 2.02
  }
]

Okay, now this variant:
Exercise: Identify measured protein stability index corresponding to `S3V`
Solution: 1.96

All values here come from the supplement of paper PMC10567573.
